This collection of values is drawn from ChEMBL document CHEMBL1144434.

Assign k3/ki to each entry below.
test_target: Caspase-3 (Homo sapiens)
Sequence (whole entry): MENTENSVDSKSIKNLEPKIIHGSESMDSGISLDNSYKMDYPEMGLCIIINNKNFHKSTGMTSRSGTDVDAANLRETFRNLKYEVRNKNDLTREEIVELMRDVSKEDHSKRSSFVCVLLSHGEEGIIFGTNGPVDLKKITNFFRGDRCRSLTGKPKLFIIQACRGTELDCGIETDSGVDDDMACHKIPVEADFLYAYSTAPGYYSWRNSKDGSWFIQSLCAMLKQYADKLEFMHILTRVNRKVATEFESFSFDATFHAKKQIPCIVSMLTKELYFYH
assay_name: Binding affinity against Caspase-3

Input line: Provide value of k3/ki for this record tested with Caspase-3 (Homo sapiens): `CC(C)[C@H](NC(=O)COc1cccc2ccccc12)C(=O)N[C@@H](CC(=O)O)C(=O)CSC1=NCCS1`
Output line: 2300 1/m/s

Input line: Under Caspase-3 (Homo sapiens): k3/ki value of `CC(C)[C@H](NC(=O)COc1cccc2ccccc12)C(=O)N[C@@H](CC(=O)O)C(=O)COc1cc2ccccc2cn1` ?
Output line: 3350 1/m/s

Input line: Lab request: please report k3/ki under test system Caspase-3 (Homo sapiens) for `COC(=O)c1cc(OCC(=O)[C@H](CC(=O)O)NC(=O)[C@@H](NC(=O)COc2cccc3ccccc23)C(C)C)no1`
Output line: 144000 1/m/s

Input line: # value lookup — system Caspase-3 (Homo sapiens), readout k3/ki, item `CC(C)[C@H](NC(=O)COc1cccc2ccccc12)C(=O)N[C@@H](CC(=O)O)C(=O)COc1cc(C(F)(F)F)nn1-c1ccccc1`
Output line: 71100 1/m/s

Input line: Field: k3/ki (Caspase-3 (Homo sapiens)). Entry: `CC(C)[C@H](NC(=O)COc1cccc2ccccc12)C(=O)N[C@@H](CC(=O)O)C(=O)CSc1nc2ccccc2o1`
Output line: 0 1/m/s

Input line: Value wanted: k3/ki (Caspase-3 (Homo sapiens)) of entry `CC(C)[C@H](NC(=O)COc1cccc2ccccc12)C(=O)N[C@@H](CC(=O)O)C(=O)CSc1ccccn1`
Output line: 348 1/m/s

Input line: GET /values?readout=k3/ki&system=Caspase-3 (Homo sapiens)&item= `CCOC(=O)c1c(C)noc1OCC(=O)[C@H](CC(=O)O)NC(=O)[C@@H](NC(=O)COc1cccc2ccccc12)C(C)C`
Output line: 5670 1/m/s

Input line: Please provide the recorded k3/ki for `CC(C)[C@H](NC(=O)COc1cccc2ccccc12)C(=O)N[C@@H](CC(=O)O)C(=O)CSc1nc(-c2ccccc2)cs1` , tested on Caspase-3 (Homo sapiens).
Output line: 2730 1/m/s

Input line: Query k3/ki on Caspase-3 (Homo sapiens) for `CC(C)[C@H](NC(=O)COc1cccc2ccccc12)C(=O)N[C@@H](CC(=O)O)C(=O)COc1nc2ccccc2[nH]1`
Output line: 958 1/m/s

Input line: Reported k3/ki for Caspase-3 (Homo sapiens), given `Cc1cc(C)nc(OCC(=O)[C@H](CC(=O)O)NC(=O)[C@@H](NC(=O)COc2cccc3ccccc23)C(C)C)n1` ?
Output line: 283 1/m/s

Input line: Recall the recorded k3/ki for `CC(C)[C@H](NC(=O)COc1cccc2ccccc12)C(=O)N[C@@H](CC(=O)O)C(=O)COc1ncnc2ccccc12` with Caspase-3 (Homo sapiens) and state it.
Output line: 343 1/m/s

Input line: Notebook: pull reported k3/ki for Caspase-3 (Homo sapiens), entry `CC(C)[C@H](NC(=O)COc1cccc2ccccc12)C(=O)N[C@@H](CC(=O)O)C(=O)CSc1nc(-c2ccccc2)c(-c2ccccc2)o1`
Output line: 2010 1/m/s

Input line: Lookup: k3/ki / Caspase-3 (Homo sapiens) / `CC(C)[C@H](NC(=O)COc1cccc2ccccc12)C(=O)N[C@@H](CC(=O)O)C(=O)COc1nccc2ccccc12`
Output line: 1310 1/m/s

Input line: GET /values?readout=k3/ki&system=Caspase-3 (Homo sapiens)&item= `Cc1nnc(SCC(=O)[C@H](CC(=O)O)NC(=O)[C@@H](NC(=O)COc2cccc3ccccc23)C(C)C)s1`
Output line: 5240 1/m/s

Input line: Reported k3/ki for Caspase-3 (Homo sapiens), given `CC(C)[C@H](NC(=O)COc1cccc2ccccc12)C(=O)N[C@@H](CC(=O)O)C(=O)COc1ccccn1` ?
Output line: 733 1/m/s
